Literature-derived Ki for Adenosine receptor A3 (Homo sapiens) follows.
metric-name: Ki (nM)

Some solved cases for reference:
# compound, result-unit, Ki
records = [
    ("CCn1nnc([C@H]2O[C@@H](n3cnc4c(N)nc(N[C@H](C)Cc5ccc(OC)cc5)nc43)[C@H](O)[C@@H]2O)n1", "nM", 100),
    ("COc1ccccc1C(=O)Nc1nc(-c2ccccc2)n[nH]1", "nM", 600),
    ("CCCn1c(=O)c2[nH]c(-c3cnn(Cc4nc(-c5cccc(C)c5)no4)c3)nc2n(CCC)c1=O", "nM", 970),
]

A: CN(C)c1nc(Nc2ccccc2)sc1C(=O)Nc1sc2c(c1C#N)CCCC2
B: CCNC(=O)[C@H]1OC(n2cnc3c(NC(=O)Nc4ccc(S(=O)(=O)N5CCOCC5)cc4)ncnc32)C(O)C1O (single isomer, unassigned)
Ask: Of A and B , whose reported Ki is numerically smaller? Let me know the label of the one you choose.
Reply: B
(B: 20 nM, A: 35600 nM)
